assayName: Antioxidant activity assessed as superoxide scavenging activity by NBT reduction assay
Assay type: functional
measuredParameter: IC50 (µM)
Please give a number only; it is taken to be in µM.

Please review the following examples before continuing.
| compound | measuredParameter | endpointResult |
| --- | --- | --- |
| O=C1O[C@H]([C@@H](O)CO)C(O)=C1O | IC50 | 852 |
| COc1ccc(/C=C2\COc3c(ccc(O)c3O)C2=O)cc1 | IC50 | 30.1 |
| COc1ccc(O)c(C(C)(C)C)c1.COc1ccc(O)cc1C(C)(C)C [BUTYLATED HYDROXYANISOLE] | IC50 | 966 |
| O=C1/C(=C/c2ccc(O)cc2)COc2c1ccc(O)c2O | IC50 | 26.5 |

Now for a further compound.
Query: IC50; subject: O=C1/C(=C/c2ccc(O)c(O)c2)COc2c1ccc(O)c2O 8.5

Source: ChEMBL document CHEMBL1148841
